Quick list: IC50 per entry.
- targetEntity: Phospho-EGFR (Tyr1068) in A431 cells (Homo sapiens)
- Construct: endogenous in cells
- Sequence (P00533 25-1210): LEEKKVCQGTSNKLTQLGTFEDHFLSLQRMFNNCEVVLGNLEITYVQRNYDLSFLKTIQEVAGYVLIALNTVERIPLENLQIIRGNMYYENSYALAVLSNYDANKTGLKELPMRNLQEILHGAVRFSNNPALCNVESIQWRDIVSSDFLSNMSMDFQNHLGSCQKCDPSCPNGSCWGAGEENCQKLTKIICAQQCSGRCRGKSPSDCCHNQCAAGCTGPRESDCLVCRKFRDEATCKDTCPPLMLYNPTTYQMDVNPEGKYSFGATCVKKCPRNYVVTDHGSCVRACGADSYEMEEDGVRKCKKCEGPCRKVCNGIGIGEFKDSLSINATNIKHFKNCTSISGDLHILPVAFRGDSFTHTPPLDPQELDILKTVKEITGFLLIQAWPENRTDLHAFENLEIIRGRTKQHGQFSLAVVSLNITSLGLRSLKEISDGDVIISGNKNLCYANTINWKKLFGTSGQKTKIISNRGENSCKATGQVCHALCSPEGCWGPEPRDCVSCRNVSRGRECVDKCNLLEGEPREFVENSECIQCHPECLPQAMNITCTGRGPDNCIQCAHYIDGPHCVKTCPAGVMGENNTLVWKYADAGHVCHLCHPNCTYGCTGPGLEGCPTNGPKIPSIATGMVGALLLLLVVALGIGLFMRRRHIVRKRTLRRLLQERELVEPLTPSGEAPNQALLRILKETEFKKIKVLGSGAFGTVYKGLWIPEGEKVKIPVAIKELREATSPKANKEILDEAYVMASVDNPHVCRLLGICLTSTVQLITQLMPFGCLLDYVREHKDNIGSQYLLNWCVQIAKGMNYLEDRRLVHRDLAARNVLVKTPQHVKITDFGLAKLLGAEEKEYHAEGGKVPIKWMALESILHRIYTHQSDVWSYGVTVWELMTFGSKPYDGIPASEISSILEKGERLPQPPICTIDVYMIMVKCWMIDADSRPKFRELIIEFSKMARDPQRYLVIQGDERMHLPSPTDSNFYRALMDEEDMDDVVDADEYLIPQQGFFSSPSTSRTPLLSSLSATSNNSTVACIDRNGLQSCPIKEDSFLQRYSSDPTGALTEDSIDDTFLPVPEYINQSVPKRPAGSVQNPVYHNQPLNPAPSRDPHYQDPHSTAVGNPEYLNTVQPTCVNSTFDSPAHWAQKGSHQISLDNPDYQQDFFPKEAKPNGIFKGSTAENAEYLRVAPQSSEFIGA
- assayDetails: HTRF pEGFR/total EGFR in A431 cells with EGF stimulation
- conditionLabel: ratio pEGFR/total EGFR, compound 2.5 hours then 100 ng/ml EGF 30 mins

{"columns": ["compound", "IC50"],
 "data": [
  ["C#Cc1cc(=O)n(-c2ccccc2)c2nc(Nc3ccc(N4CCN(CC)CC4)cc3)ncc12 [Example 15]", "> 3 µM"],
  ["C#Cc1cc(=O)n(C)c2nc(Nc3ccc(N(C)CCN(C)C)cc3)ncc12 [Example 43]", "> 3 µM"],
  ["C#Cc1cc(=O)n([C@H]2CC[C@@H](NC(=O)CCCN(C)C)CC2)c2nc(Nc3ccc(N4CCN(C)CC4)cc3)ncc12 [Example 97]", "> 3 µM"],
  ["C#Cc1cc(=O)n(-c2ccccc2)c2nc(Nc3ccc(N(C)CCCN(C)C)cc3)ncc12 [Example 9]", "> 3 µM"],
  ["C#Cc1cc(=O)n2c3nc(ncc13)Nc1ccc(N3CCN(C)CC3)c(c1)OCCCCCC2 [Example 230]", "1 to 3 µM"]
]}
